System: microorganisms
Experiment: Morphology, biofilm and growth disrupting peptides (Table 5)
Format: cell-based
Parameters: key: A: Peptide aggregates; B: Less hyphal formation; Clumps; Diffuse clumps and small polyps; F: Diffuse growth; H: Thin; I: Growth inhibition; Microcolony formation; Rippled; Small polyps; Thick; W: Halo formation on top, microlonies on bottom
Conditions: S. epidermidis
Ends that are not written are not given here.
Endpoint name: Organism, effect

| Substance | Endpoint name | Result value |
| --- | --- | --- |
| YIQFHLNQQPRPKVKKIKIFL-NH2 [PF-531] | Organism, effect | S. epidermidis (I) |
| PF-677 (TCRGAGMH; Peptide with targeting and/or antimicrobial activity) | Organism, effect | S. epidermidis (R) |
| PF-440: peptide having multiple activities (MFIISPDLFNIAVILYILFFIHDILLLILS; Peptide with targeting and/or antimicrobial activity) | Organism, effect | S. epidermidis (C) |
| PF-761: peptide having multiple activities (SKFELVNYASGCSCGADCKCASETECKCASKK; Peptide with targeting and/or antimicrobial activity) | Organism, effect | S. epidermidis (C) |

For every record below, what is its Organism, effect?
1. PF-690 (MIPLAGDPVSSHRTVEFGVLGTYLVSGGSL; Peptide with targeting and/or antimicrobial activity)
2. TKKIELKRFVDAFVKKSYENYILERELKKLIKAINEELPTK [PF-600]
3. MRFGSLALVAYDSAIKHSWPRPSSVRRLRM [PF-672]
4. PF-460: peptide having multiple activities (MEHVLPFQNTPPNIVIIYKDFTHLKSITFS; Peptide with targeting and/or antimicrobial activity)
5. PF-586: peptide having multiple activities (chain 1 FFNQANYFFKEF; chain 2 FFNQANYFFKEF; Peptide with targeting and/or antimicrobial activity)

1: S. epidermidis (R); 2: S. epidermidis (C); 3: S. epidermidis (I); 4: S. epidermidis (C); 5: S. epidermidis (C)

Measured values drawn from patent US20110039763A1 for this set.
